Where do these numbers come from? They come from paper PMC9506633.

method description: MTT anti-proliferative assay, Caco-2
Format: cell-based
stated conditions: African green monkey (Vero); human (Caco-2); SI = Cytotoxicity against Vero cells / Cytotoxicity against Caco-2 cell line; read-out: Selectivity index (Caco-2)
readout type: selectivity ratio

[
  {
    "compound": "O=C(CN1C(=O)SC(=C2C(=O)Nc3ccccc32)C1=O)Nc1ccc(Cl)cc1 [Compound 14a]",
    "readout type": "selectivity ratio",
    "readout value": 212
  },
  {
    "compound": "COc1ccc2[nH]c(=O)c(/C=C3\\SC(=O)N(CC(=O)Nc4cc(Cl)ccc4Cl)C3=O)cc2c1 [Compound 10b]",
    "readout type": "selectivity ratio",
    "readout value": 25.3
  },
  {
    "compound": "COc1ccc2[nH]c(=O)c(/C=C3\\SC(=O)N(CC(=O)Nc4ccc(Cl)cc4)C3=O)cc2c1 [Compound 10a]",
    "readout type": "selectivity ratio",
    "readout value": 2.35
  },
  {
    "compound": "O=C(CN1C(=O)SC(=C2C(=O)Nc3ccccc32)C1=O)NCCc1ccccc1 [Compound 14c]",
    "readout type": "selectivity ratio",
    "readout value": 5.07
  },
  {
    "compound": "O=C(CN1C(=O)SC(=C2C(=O)Nc3ccccc32)C1=O)Nc1cc(Cl)ccc1Cl [Compound 14b]",
    "readout type": "selectivity ratio",
    "readout value": 17.1
  }
]

###

measured target: VEGFR-2 (Homo sapiens, UniProt P35968)
Construct: purchased
Sequence (P35968 20-1356): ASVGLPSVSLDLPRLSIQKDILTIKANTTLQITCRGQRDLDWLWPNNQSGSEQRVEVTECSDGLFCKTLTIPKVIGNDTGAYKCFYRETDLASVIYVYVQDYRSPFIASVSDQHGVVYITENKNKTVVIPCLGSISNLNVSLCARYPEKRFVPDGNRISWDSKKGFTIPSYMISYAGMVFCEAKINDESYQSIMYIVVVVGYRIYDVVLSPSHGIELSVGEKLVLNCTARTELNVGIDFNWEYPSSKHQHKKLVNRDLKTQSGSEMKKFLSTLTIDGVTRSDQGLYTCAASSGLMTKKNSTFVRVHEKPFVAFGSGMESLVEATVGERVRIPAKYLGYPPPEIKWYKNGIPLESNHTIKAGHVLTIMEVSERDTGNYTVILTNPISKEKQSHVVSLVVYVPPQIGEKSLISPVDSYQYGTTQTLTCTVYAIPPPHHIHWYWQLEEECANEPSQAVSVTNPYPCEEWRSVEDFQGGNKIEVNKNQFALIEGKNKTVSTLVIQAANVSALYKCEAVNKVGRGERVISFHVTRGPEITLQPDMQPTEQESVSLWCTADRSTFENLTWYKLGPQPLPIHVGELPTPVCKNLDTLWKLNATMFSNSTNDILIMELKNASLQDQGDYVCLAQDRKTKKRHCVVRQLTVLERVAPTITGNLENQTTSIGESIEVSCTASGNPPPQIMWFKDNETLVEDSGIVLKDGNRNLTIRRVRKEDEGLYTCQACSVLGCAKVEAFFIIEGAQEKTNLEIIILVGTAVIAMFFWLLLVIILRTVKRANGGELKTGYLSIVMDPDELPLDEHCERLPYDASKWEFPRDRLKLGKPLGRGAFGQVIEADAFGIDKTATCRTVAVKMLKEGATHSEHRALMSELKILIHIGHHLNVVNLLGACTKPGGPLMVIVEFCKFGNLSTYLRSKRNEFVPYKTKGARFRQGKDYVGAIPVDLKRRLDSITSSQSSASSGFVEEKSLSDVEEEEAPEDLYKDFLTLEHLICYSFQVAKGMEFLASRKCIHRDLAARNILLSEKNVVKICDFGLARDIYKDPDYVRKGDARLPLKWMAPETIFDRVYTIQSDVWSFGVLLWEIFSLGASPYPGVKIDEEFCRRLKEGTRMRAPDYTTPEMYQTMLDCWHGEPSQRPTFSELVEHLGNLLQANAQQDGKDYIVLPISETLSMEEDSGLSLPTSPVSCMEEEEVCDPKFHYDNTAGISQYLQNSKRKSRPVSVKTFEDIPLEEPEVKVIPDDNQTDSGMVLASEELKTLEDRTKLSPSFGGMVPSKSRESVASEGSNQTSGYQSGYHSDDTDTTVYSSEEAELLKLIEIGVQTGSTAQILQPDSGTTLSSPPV
method description: In vitro VEGFR-2 inhibition (VEGFR-2 ELISA kit)
Type: biochemical
stated conditions: dose-response curve fit, raw data S.5

[
  {
    "compound": "O=C(CN1C(=O)SC(=C2C(=O)Nc3ccccc32)C1=O)Nc1ccc(Cl)cc1 [Compound 14a]",
    "HillSlope (best-fit value)": -0.4675
  },
  {
    "compound": "O=C(CN1C(=O)SC(=C2C(=O)Nc3ccccc32)C1=O)NCCc1ccccc1 [Compound 14c]",
    "HillSlope (best-fit value)": -0.4220
  },
  {
    "compound": "O=C(CN1C(=O)SC(=C2C(=O)Nc3ccccc32)C1=O)Nc1cc(Cl)ccc1Cl [Compound 14b]",
    "HillSlope (best-fit value)": -0.5620
  },
  {
    "compound": "COc1ccc2[nH]c(=O)c(/C=C3\\SC(=O)N(CC(=O)Nc4cc(Cl)ccc4Cl)C3=O)cc2c1 [Compound 10b]",
    "HillSlope (best-fit value)": -0.3514
  },
  {
    "compound": "COc1ccc2[nH]c(=O)c(/C=C3\\SC(=O)N(CC(=O)Nc4ccc(Cl)cc4)C3=O)cc2c1 [Compound 10a]",
    "HillSlope (best-fit value)": -0.4587
  }
]

###

Tested on: Caco-2
method description: MTT anti-proliferative assay, Caco-2
Assay type: cell-based
stated conditions: Homo sapiens; Caco-2 cell line, MTT; read-out: Anti-proliferative activity (IC50 μM) Caco2
A collection of compounds and their measured IC50

[
  {
    "compound": "O=C(CN1C(=O)SC(=C2C(=O)Nc3ccccc32)C1=O)Nc1cc(Cl)ccc1Cl [Compound 14b]",
    "uom": "µM",
    "IC50": 74
  },
  {
    "compound": "COc1ccc2[nH]c(=O)c(/C=C3\\SC(=O)N(CC(=O)Nc4ccc(Cl)cc4)C3=O)cc2c1 [Compound 10a]",
    "uom": "µM",
    "IC50": 82.5
  },
  {
    "compound": "COc1cccc2c1C(=O)c1c(O)c3c(c(O)c1C2=O)C[C@@](O)(C(=O)CO)C[C@@H]3O[C@H]1C[C@H](N)[C@H](O)[C@H](C)O1 [Doxorubicin, reference compound]",
    "uom": "µM",
    "IC50": 3.5
  },
  {
    "compound": "O=C(CN1C(=O)SC(=C2C(=O)Nc3ccccc32)C1=O)Nc1ccc(Cl)cc1 [Compound 14a]",
    "uom": "µM",
    "IC50": 1.5
  }
]
